- System: DMS-273
- ASSAY_TEXT: NCI tumour cell line growth inhibition, 48 h
Calls of active or inactive are those of the source. Rule as the data show it: active = GI50 up to about 1.1 µM and inactive = higher.
PROPERTY_NAME: GI50

* CCOC(=O)c1ccc(N2C(=O)Cc3ccccc3C2=O)cc1 | > 100 µM (inactive)
* NC(=O)c1ccc(Cl)c([N+](=O)[O-])c1 | > 100 µM (inactive)

Input: GI50 lookup needed for `[N-]=[N+]=Nc1cc(=O)oc2ccccc12` , thanks.
Output: > 100 µM (inactive)

Input: Fill in the blank: the reported GI50 of `CCOC(=O)c1ncn2c1[nH]c(=S)c1ccccc12` is ____.
Output: 44.1 µM (inactive)

Input: # get_value(readout='GI50', item= `NC(=O)c1c2c(cc3c(=O)c4ccccc4[nH]c13)CCCC2` )
Output: > 100 µM (inactive)

Input: Could you tell me which GI50 is on file for `COc1ccc(/C=c2/sc3n(c2=O)NC2(CCCCC2)NN=3)cc1` ?
Output: > 100 µM (inactive)

Input: Please report the recorded GI50 for COc1ccc(C2c3cc(OC)c(OC)cc3C(Cc3ccc([N+](=O)[O-])cc3)C2c2ccc([N+](=O)[O-])cc2)cc1OC (stereo not given) .
Output: > 100 µM (inactive)

Input: Reported GI50, compound `O=S(=O)(/C=C/c1ccc(F)cc1)Cc1ccc(CS(=O)(=O)/C=C/c2ccc(F)cc2)cc1` : ____
Output: > 100 µM (inactive)

Input: Tell me the measured GI50 of `COC(=O)c1ccccc1NC(=O)C(=O)Cc1nc2c3c(ccc2nc1O)C(=O)c1ccccc1C3=O` , please.
Output: 11.8 µM (inactive)

Input: Need GI50, item `[N-]=[N+]=Nc1c(Br)c(=O)[nH]c(=O)n1COCCO`
Output: > 100 µM (inactive)
